Listing of recorded solubility at 24 h by entry.
experiment: physchem; settings: pH 6.8 buffer solution
Description: Aqueous solubility of the compound in pH 6.8 buffer solution after 24 hrs by LC-UV analysis
quantity: solubility at 24 h

molecule=O=C(NC[C@@H]1[C@H]2CN(C(=O)OCc3cc(C(F)(F)F)cc(C(F)(F)F)c3)C[C@@H]12)c1ccc2[nH]c(=O)oc2c1 value_reported="< 1 µg/mL"
molecule=Cc1cc(COC(=O)N2C[C@@H]3[C@@H](CNC(=O)c4ccc5[nH]c(=O)oc5c4)[C@@H]3C2)no1 value_reported="63 µg/mL"
molecule=O=C(NC[C@@H]1[C@H]2CN(C(=O)/C=C/c3cc(Cl)cc(Cl)c3)C[C@@H]12)c1ccc2[nH]c(=O)oc2c1 value_reported="< 1 µg/mL"
molecule=O=C(NC[C@@H]1[C@H]2CN(C(=O)OCc3cc(Cl)cc(Cl)c3)C[C@@H]12)c1ccc2[nH]c(=O)oc2c1 value_reported="< 1 µg/mL"

###

experiment: Tmax in Han Wistar rat at 10 mg/kg, po; type: ADME, organism-based; settings: in vivo
quantity: Tmax (h)

compound="O=C(NC[C@@H]1[C@H]2CN(C(=O)OCc3cc(C(F)(F)F)cc(C(F)(F)F)c3)C[C@@H]12)c1ccc2[nH]nnc2c1 [BI 2545]" unit_annotation=h value_reported=1.7

###

experiment: physchem; settings: pH 6.8 buffer solution
quantity: solubility at 24 h

molecule=N#Cc1cc(COC(=O)N2C[C@@H]3[C@@H](CNC(=O)c4ccc5[nH]c(=O)oc5c4)[C@@H]3C2)cc(OC(F)(F)F)c1 value_reported="< 1 µg/mL"
molecule=Cc1ccc(COC(=O)N2C[C@@H]3[C@@H](CNC(=O)c4ccc5[nH]c(=O)oc5c4)[C@@H]3C2)nc1 value_reported="56 µg/mL"
molecule=O=C(NC[C@@H]1[C@H]2CN(C(=O)OCc3cc(C(F)(F)F)cc(C(F)(F)F)c3)C[C@@H]12)c1ccc2[nH]nnc2c1 value_reported="< 1 µg/mL"
molecule=N#Cc1cc(COC(=O)N2C[C@@H]3[C@@H](CNC(=O)N4CCc5[nH]nnc5C4)[C@@H]3C2)cc(C(=O)OC(F)(F)F)c1 value_reported="5 µg/mL"

###

biological target: UniProtKB Q64610; assay: Inhibition of recombinant rat ATX using LPC 18:1 as substrate after 2 hrs by rapidfire/MS-based analysis
pIC50: −log10 of the molar value.
I would appreciate it if you labelled entries MET when pIC50 is 8 or higher, otherwise NOT MET.

molecule="O=C(NC[C@@H]1[C@H]2CN(C(=O)C3CC3c3cc(Cl)cc(Cl)c3)C[C@@H]12)c1ccc2[nH]c(=O)oc2c1 (some centres not stated)" answer_label=MET
molecule=N#Cc1cc(COC(=O)N2C[C@@H]3[C@@H](CNC(=O)c4ccc5[nH]c(=O)oc5c4)[C@@H]3C2)cc(OC(F)(F)F)c1 answer_label=MET
molecule=N#Cc1cc(COC(=O)N2C[C@@H]3[C@@H](CNC(=O)N4CCc5[nH]nnc5C4)[C@@H]3C2)cc(C(=O)OC(F)(F)F)c1 answer_label=MET
molecule="CC(OC(=O)N1C[C@@H]2[C@@H](CNC(=O)c3ccc4[nH]c(=O)oc4c3)[C@@H]2C1)c1cc(Cl)cc(Cl)c1 (some centres not stated)" answer_label="NOT MET"
molecule=O=C(NC[C@@H]1[C@H]2CN(C(=O)N3CCc4c(Cl)cc(Cl)cc4C3)C[C@@H]12)c1ccc2[nH]c(=O)oc2c1 answer_label="NOT MET"
molecule=O=C(NC[C@@H]1[C@H]2CN(C(=O)CCc3cc(Cl)cc(Cl)c3)C[C@@H]12)c1ccc2[nH]c(=O)oc2c1 answer_label=MET
molecule=N#Cc1cc(COC(=O)N2C[C@@H]3[C@@H](CNC(=O)NCCCc4cnn[nH]4)[C@@H]3C2)cc(C(=O)OC(F)(F)F)c1 answer_label=MET
molecule="CC(C)(C)OC(=O)N1CCCC(COC(=O)N2C[C@@H]3[C@@H](CNC(=O)c4ccc5[nH]c(=O)oc5c4)[C@@H]3C2)C1 (some centres not stated)" answer_label="NOT MET"
molecule=O=C(NC[C@@H]1[C@H]2CN(C(=O)/C=C/c3cc(Cl)cc(Cl)c3)C[C@@H]12)c1ccc2[nH]c(=O)oc2c1 answer_label=MET
molecule=O=C(NC[C@@H]1[C@H]2CN(C(=O)OCc3cc(Cl)cc(Cl)c3)C[C@@H]12)c1ccc2[nH]c(=O)oc2c1 answer_label=MET
molecule=Cc1ccc(COC(=O)N2C[C@@H]3[C@@H](CNC(=O)c4ccc5[nH]c(=O)oc5c4)[C@@H]3C2)nc1 answer_label="NOT MET"
molecule=O=C(NC[C@@H]1[C@H]2CN(C(=O)OCc3cc(C(F)(F)F)cc(C(F)(F)F)c3)C[C@@H]12)c1ccc2[nH]c(=O)oc2c1 answer_label=MET
molecule=O=C(NC[C@@H]1[C@H]2CN(C(=O)OCc3cc(C(F)(F)F)cc(C(F)(F)F)c3)C[C@@H]12)c1ccc2[nH]nnc2c1 answer_label=MET
molecule=Cc1cc(COC(=O)N2C[C@@H]3[C@@H](CNC(=O)c4ccc5[nH]c(=O)oc5c4)[C@@H]3C2)no1 answer_label="NOT MET"
molecule=N#Cc1cc(COC(=O)N2C[C@@H]3[C@@H](CNC(=O)c4ccc5[nH]nnc5c4)[C@@H]3C2)cc(C(=O)OC(F)(F)F)c1 answer_label=MET

###

biological target: Autotaxin (Rattus norvegicus, UniProt Q64610); experiment: Inhibition of ATX in rat whole blood using LPA 17:0 as substrate after 1 hr by LC-MS/MS analysis
Mark fulfilled only for IC50 values smaller than 80 nM; exact matches and larger values are not fulfilled.

compound=N#Cc1cc(COC(=O)N2C[C@@H]3[C@@H](CNC(=O)c4ccc5[nH]c(=O)oc5c4)[C@@H]3C2)cc(OC(F)(F)F)c1 answer_label="not fulfilled"
compound="CC(C)(C)OC(=O)N1CCCC(COC(=O)N2C[C@@H]3[C@@H](CNC(=O)c4ccc5[nH]c(=O)oc5c4)[C@@H]3C2)C1 (stereo not given in full)" answer_label=fulfilled
compound=N#Cc1cc(COC(=O)N2C[C@@H]3[C@@H](CNC(=O)c4ccc5[nH]nnc5c4)[C@@H]3C2)cc(C(=O)OC(F)(F)F)c1 answer_label=fulfilled
compound=O=C(NC[C@@H]1[C@H]2CN(C(=O)OCc3cc(Cl)cc(Cl)c3)C[C@@H]12)c1ccc2[nH]c(=O)oc2c1 answer_label=fulfilled
compound=O=C(NC[C@@H]1[C@H]2CN(C(=O)OCc3cc(C(F)(F)F)cc(C(F)(F)F)c3)C[C@@H]12)c1ccc2[nH]c(=O)oc2c1 answer_label=fulfilled
compound="O=C(NC[C@@H]1[C@H]2CN(C(=O)C3CC3c3cc(Cl)cc(Cl)c3)C[C@@H]12)c1ccc2[nH]c(=O)oc2c1 (stereo not given in full)" answer_label="not fulfilled"
compound="CC(OC(=O)N1C[C@@H]2[C@@H](CNC(=O)c3ccc4[nH]c(=O)oc4c3)[C@@H]2C1)c1cc(Cl)cc(Cl)c1 (stereo not given in full)" answer_label="not fulfilled"
compound=N#Cc1cc(COC(=O)N2C[C@@H]3[C@@H](CNC(=O)NCCCc4cnn[nH]4)[C@@H]3C2)cc(C(=O)OC(F)(F)F)c1 answer_label=fulfilled
compound=O=C(NC[C@@H]1[C@H]2CN(C(=O)/C=C/c3cc(Cl)cc(Cl)c3)C[C@@H]12)c1ccc2[nH]c(=O)oc2c1 answer_label="not fulfilled"
compound=O=C(NC[C@@H]1[C@H]2CN(C(=O)OCc3cc(C(F)(F)F)cc(C(F)(F)F)c3)C[C@@H]12)c1ccc2[nH]nnc2c1 answer_label="not fulfilled"
compound=O=C(NC[C@@H]1[C@H]2CN(C(=O)CCc3cc(Cl)cc(Cl)c3)C[C@@H]12)c1ccc2[nH]c(=O)oc2c1 answer_label=fulfilled
compound=O=C(NC[C@@H]1[C@H]2CN(C(=O)NCc3cc(Cl)cc(Cl)c3)C[C@@H]12)c1ccc2[nH]c(=O)oc2c1 answer_label=fulfilled
compound=O=C(CCN1CCN(C(=O)OCc2cc(Cl)cc(Cl)c2)CC1)c1ccc2[nH]c(=O)oc2c1 answer_label="not fulfilled"
compound=N#Cc1cc(COC(=O)N2C[C@@H]3[C@@H](CNC(=O)N4CCc5[nH]nnc5C4)[C@@H]3C2)cc(C(=O)OC(F)(F)F)c1 answer_label=fulfilled
compound=Cc1ccc(COC(=O)N2C[C@@H]3[C@@H](CNC(=O)c4ccc5[nH]c(=O)oc5c4)[C@@H]3C2)nc1 answer_label="not fulfilled"

###

target: L-type calcium channel (Homo sapiens, UniProt O60840+Q01668+Q13698+Q13936); assay: Inhibition of L-type calcium channel (unknown origin) at 10 uM relative to control; assay type: protein assay
quantity: inhibition at 10 µM (%)

molecule=O=C(NC[C@@H]1[C@H]2CN(C(=O)OCc3cc(C(F)(F)F)cc(C(F)(F)F)c3)C[C@@H]12)c1ccc2[nH]nnc2c1 target_system="L-type calcium channel (Homo sapiens, UniProt O60840+Q01668+Q13698+Q13936)" value_reported=80
